Biological target: Muscarinic acetylcholine receptor M2 (Sus scrofa) (UniProt P06199)
Sequence (whole entry): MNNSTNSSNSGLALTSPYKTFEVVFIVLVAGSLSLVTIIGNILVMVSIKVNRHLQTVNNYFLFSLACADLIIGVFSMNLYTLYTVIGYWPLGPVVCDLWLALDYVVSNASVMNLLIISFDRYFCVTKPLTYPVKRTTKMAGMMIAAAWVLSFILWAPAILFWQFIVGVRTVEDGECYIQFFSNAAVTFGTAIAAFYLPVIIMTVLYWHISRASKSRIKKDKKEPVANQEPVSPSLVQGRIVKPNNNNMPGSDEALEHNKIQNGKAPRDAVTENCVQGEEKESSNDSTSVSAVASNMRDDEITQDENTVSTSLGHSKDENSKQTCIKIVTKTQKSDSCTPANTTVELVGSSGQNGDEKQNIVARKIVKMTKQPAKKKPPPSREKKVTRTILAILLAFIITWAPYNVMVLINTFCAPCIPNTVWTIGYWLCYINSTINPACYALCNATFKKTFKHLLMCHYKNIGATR
Assay: Concentration for half maximal inhibition of [3H]NMS dissociation from muscarinic acetylcholine receptor M2 in porcine heart ventricles
Quick rule for you: pEC0.5 at 8 or higher means yes, lower means no.

Past entries and their recorded results:
compound: C1=C2C[N+]3(CC4CO4)CC[C@@]45c6ccccc6N6[C@@H]7OCC=C8C[N+]9(CC%10CO%10)CC[C@]%10%11c%12ccccc%12N([C@H](OC1)[C@H](C2C[C@@H]43)[C@H]65)[C@H]%10[C@H]7[C@H]8C[C@@H]%119 (some centres undefined)
target desc: Muscarinic acetylcholine receptor M2 (Sus scrofa) (UniProt P06199)
discrete label: no
//
compound: C=CC[N+]12CC[C@@]34c5ccccc5N5/C=C6\C7N(c8ccccc8[C@@]78CC[N+]7(CC=C)C/C(=C/CO)[C@@H]6C[C@@H]87)[C@@H]6OCC=C(C1)[C@H](C[C@@H]32)C6C54 (some centres undefined)
target desc: Muscarinic acetylcholine receptor M2 (Sus scrofa) (UniProt P06199)
discrete label: yes
//
compound: C[N+]12CC[C@@]34c5ccccc5N5[C@@H]6OCC[C@@H]7C[N+]8(C)CC[C@]9%10c%11ccccc%11N([C@@H]%11OCC[C@H](C1)[C@H](C[C@@H]32)C%11[C@H]54)[C@H]9[C@H]6[C@H]7C[C@@H]%108 (some centres undefined)
target desc: Muscarinic acetylcholine receptor M2 (Sus scrofa) (UniProt P06199)
discrete label: yes
//
compound: C=CC[N+]12CC[C@]34c5cc(OC)c(OC)cc5N5C3[C@@H]3[C@@H](OCC=C(C1)[C@@H]3C[C@@H]42)N1c2cc(OC)c(OC)cc2[C@@]23CC[N+]4(CC=C)CC6=CCO[C@@H]5[C@@H](C12)[C@H]6C[C@@H]34 (some centres undefined)
target desc: Muscarinic acetylcholine receptor M2 (Sus scrofa) (UniProt P06199)
discrete label: no
//
compound: Brc1ccc(C[N+]23CC[C@@]45c6ccccc6N6[C@@H]7OCC=C8C[N+]9(Cc%10ccc(Br)cc%10)CC[C@]%10%11c%12ccccc%12N([C@@H]%12OCC=C(C2)[C@H](C[C@@H]43)[C@@H]%12[C@H]65)[C@H]%10[C@H]7[C@H]8C[C@@H]%119)cc1 (some centres undefined)
target desc: Muscarinic acetylcholine receptor M2 (Sus scrofa) (UniProt P06199)
discrete label: no

IN: Is the recorded value of pEC0.5 equal to or greater than 8 for this compound? COc1ccc(C[N+]23CC[C@@]45c6ccccc6N6[C@@H]7OCC=C8C[N+]9(Cc%10ccc(OC)cc%10)CC[C@]%10%11c%12ccccc%12N([C@@H]%12OCC=C(C2)[C@H](C[C@@H]43)[C@@H]%12[C@H]65)[C@H]%10[C@H]7[C@H]8C[C@@H]%119)cc1 (some centres undefined)
OUT: no
